Target: T1, human APRIL protein (human, UniProt O75888 105-250, limits assumed)
T1 construct: Bought protein; also called recombinant APRIL protein
T1 sequence (looked up): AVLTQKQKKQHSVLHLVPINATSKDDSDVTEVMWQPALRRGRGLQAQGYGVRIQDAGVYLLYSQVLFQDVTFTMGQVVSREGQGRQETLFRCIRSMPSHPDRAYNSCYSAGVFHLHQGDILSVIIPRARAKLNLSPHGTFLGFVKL
Assay: ELISA, coated APRIL; antibody 13.3 nM

- Binder: "93C6F10D3 (antibody, V domains shown) VH: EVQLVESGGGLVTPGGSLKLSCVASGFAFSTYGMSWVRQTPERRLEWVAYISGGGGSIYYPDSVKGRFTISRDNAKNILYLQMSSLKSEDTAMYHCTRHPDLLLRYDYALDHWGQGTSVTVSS VL: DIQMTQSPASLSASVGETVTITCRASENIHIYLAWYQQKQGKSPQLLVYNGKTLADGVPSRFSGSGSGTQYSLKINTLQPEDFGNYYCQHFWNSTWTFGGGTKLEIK"
  OD450 nm: 0.171
- Binder: "89A2G5E7 (antibody, V domains shown, Mouse hybridoma antibody purified on Protein G) VH: QVQLKESGPGLVAPSQSLSITCTVSGLSLNSHDISWIRQPPGKGLEWLGVIWSGGGTKYNSAFMSRLSISKDNSKSQVFLKMNSLHTDDTAIYYCVRTPSMITYSAMDYWGQGTSVTVSS VL: EIVLTQSPALMAASPGEKVTITCSVSSSISSRNLHWYQQKSQTSPKAWIHATSNLASGVPVRFSGSGSGTSYSLTISSMEAEDAATYYCQQWSSYPLTFGSGTKLEIK"
  OD450 nm: 0.0973
- Binder: "97E7B3F2 (antibody, V domains shown) VH: EVQLQQSGPELVKSGASVKISCKASGYTFTDHKMHWVKQSHGKSLEWIGYISPYNGGTGYNQKFKSKVTLTVDISSSTAYMELRSLTSEDSAVYYCARWGFYDVMDSWGQGTSVTVSS VL: DVLLTQTPLSLPVSLGDQASISCRSSQTIVHIIGDTYLEWYLQKPGQSPKLLIYKVSNRFSGVPDRFSGSGAGTDFTLKISRVEAEDLGVYYCFQGSHVPRTFGGGTKLEIK"
  OD450 nm: 0.182
